# TARGET_OF_ASSAY: human A3AR (Homo sapiens, UniProt P0DMS8)
# Construct: expressed in transfected cells
# Sequence (P0DMS8 whole entry): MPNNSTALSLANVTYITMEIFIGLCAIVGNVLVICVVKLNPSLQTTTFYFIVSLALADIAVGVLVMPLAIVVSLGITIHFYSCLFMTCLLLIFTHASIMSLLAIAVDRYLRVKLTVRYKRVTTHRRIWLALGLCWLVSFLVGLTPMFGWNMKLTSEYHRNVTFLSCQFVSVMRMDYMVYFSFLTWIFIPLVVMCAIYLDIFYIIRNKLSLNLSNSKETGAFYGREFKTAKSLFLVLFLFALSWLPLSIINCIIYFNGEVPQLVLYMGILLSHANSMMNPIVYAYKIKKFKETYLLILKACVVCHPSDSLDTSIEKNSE
# EXPERIMENT: LOPAC library primary screen: single concentration (10 μM) inhibition of 25 nM CA200645 binding, PHERAstar FS
Where a name gives a salt, the structure may show the parent alone.

{"COMPOUND": "N=C(N)NC(=O)c1nc(Cl)c(N)nc1N [Amiloride hydrochloride]", "TARGET_OF_ASSAY": "human A3AR (Homo sapiens, UniProt P0DMS8)", "% 25 nM CA200645 binding (%)": 88.5}
{"COMPOUND": "Cc1c2ccncc2c(C)c2c1[nH]c1ccccc12", "TARGET_OF_ASSAY": "human A3AR (Homo sapiens, UniProt P0DMS8)", "% 25 nM CA200645 binding (%)": 78.2}
{"COMPOUND": "CCn1cc(C(=O)O)c(=O)c2cc3c(cc21)OCO3", "TARGET_OF_ASSAY": "human A3AR (Homo sapiens, UniProt P0DMS8)", "% 25 nM CA200645 binding (%)": 101.1}
{"COMPOUND": "Cl.N=C(N)c1ccc(CS(=O)(=O)F)cc1", "TARGET_OF_ASSAY": "human A3AR (Homo sapiens, UniProt P0DMS8)", "% 25 nM CA200645 binding (%)": 98.9}
{"COMPOUND": "CC(C)(C)c1cc(/C=C(\\C#N)C(N)=S)cc(C(C)(C)C)c1O", "TARGET_OF_ASSAY": "human A3AR (Homo sapiens, UniProt P0DMS8)", "% 25 nM CA200645 binding (%)": 57.5}
{"COMPOUND": "NC[C@@H]1O[C@H](O[C@H]2[C@@H](O)[C@H](O[C@@H]3[C@@H](O)[C@H](N)C[C@H](N)[C@H]3O[C@H]3O[C@H](CO)[C@@H](O)[C@H](O)[C@H]3N)O[C@@H]2CO)[C@H](N)[C@@H](O)[C@@H]1O [Paromomycin sulfate]", "TARGET_OF_ASSAY": "human A3AR (Homo sapiens, UniProt P0DMS8)", "% 25 nM CA200645 binding (%)": 106.3}
{"COMPOUND": "Cl.c1ccc2nc(C3=NCCN3)ccc2c1 [BU224 hydrochloride]", "TARGET_OF_ASSAY": "human A3AR (Homo sapiens, UniProt P0DMS8)", "% 25 nM CA200645 binding (%)": 100.8}
{"COMPOUND": "CC(C)[C@H]1CN[C@H](C(=O)O)[C@H]1CC(=O)O [Dihydrokainic acid]", "TARGET_OF_ASSAY": "human A3AR (Homo sapiens, UniProt P0DMS8)", "% 25 nM CA200645 binding (%)": 92.4}
